Property name: melting point

Query: melting point; subject: COC(=O)C1=CCC(C)=CC1c1c(F)c(F)nc(F)c1F (stereo not shown) 93 to 96 °C

Query: melting point; subject: COC(=O)C1=CCC(OC(=O)OC(C)(C)C)=CC1c1c(F)c(F)c(C#N)c(F)c1F (stereo not shown) 104 to 105 °C

Query: melting point; subject: CC1=CC(c2c(F)c(F)c(C#N)c(F)c2F)C(C#N)=CC1 (stereo not shown) 117 to 120 °C

Query: melting point; subject: COC(=O)C1=CCC(C)=CC1c1c(F)c(F)c(C(F)(F)F)c(F)c1F (stereo not shown) 104 to 105 °C

Query: melting point; subject: COC(=O)C1=CCC(C)=CC1c1c(F)c(F)c(C(=O)OC)c(F)c1F (stereo not shown) 91 to 95 °C

Query: melting point; subject: COC(=O)C1=CCC(C(C)(C)C)=CC1c1c(F)c(F)nc(F)c1F (stereo not shown) 59 to 60 °C

Query: melting point; subject: COC(=O)C1=CCC(C(C)(C)C)=CC1c1c(F)c(F)c(C#N)c(F)c1F (stereo not shown) 108 to 110 °C
